Tested on: NCI-H460 lung
Assay: NCI-60 one-dose screen, 48 h (100 = growth as untreated, 0 = no growth, -100 = all killed)
Conditions: 10 µM unless noted
The panel holds about 83,000 compounds, 20% with a hit somewhere; the sample as a whole holds those more often. The source made the active and inactive calls. How the source made its calls: active means growth percent below 10; inactive means the rest.
Recorded measurements of growth, one per entry

• O=C(CO[N+](=O)[O-])Nc1ccc(C(=O)/C=C/c2ccc3c(c2)OCO3)cc1 = 108% (inactive)
• NC1=CSC2=N/C(=C\c3ccc(Cl)cc3)C(=O)N12 = 62.1% (inactive)
• Oc1cc(O)c2c(=S)cc(-c3ccc(Cl)cc3)oc2c1 = 21% (inactive)
• Cc1sc2nc3[nH]/c(=C\c4ccc(Cl)cc4)c(=O)n3c(=O)c2c1C = 104% (inactive)
• O=C1/C(=C/c2ccc(Cl)c(Cl)c2)CN(C(=O)CCN2CCC(=NO)CC2)C/C1=C\c1ccc(Cl)c(Cl)c1 = -66% (active)

Shifting focus to the molecule that follows.
I'd like to know its growth. The molecule in question is O=[N+]([O-])c1cccc(-c2nc3sccn3c2-c2ccnc(NCCCNS(=O)(=O)c3ccc(Br)cc3)n2)c1
66.7% (inactive)

----------
Recorded measurements of growth, one per entry
System: MCF7 breast
Assay: NCI-60 one-dose screen, 48 h (100 = growth as untreated, 0 = no growth, -100 = all killed)
Settings: 10 µM unless noted
The panel holds about 83,000 compounds, 20% with a hit somewhere; the sample as a whole holds those more often.
Give the number; % is assumed, so skip it.

# annotated cases, reported growth shown
* CN1CCN(c2ccc3nc(-c4ccc5nc(-c6ccc(OCCC(C)(C)C)cc6)[nH]c5c4)[nH]c3c2)CC1 | -61.3
* CN(C)CCCC(=O)Nc1ccc(Cn2nnc3c2C(=O)c2nnn(Cc4ccc(NC(=O)CCCN(C)C)cc4)c2C3=O)cc1 | -40
* CCCCNC(=O)NS(=O)(=O)c1ccc(N2N=C(c3cc(C)ccc3C)CC2c2cc(OC)c(OC)c(OC)c2)cc1 (stereo not drawn) | 24.4
* CCC(c1ccccc1)C(CC)c1ccc(O)c(O)c1 (stereo not drawn) | 98.7
* Oc1ccccc1/C=N/Nc1ccc2ccccc2n1 | -18

I'd like to know its growth. The molecule in question is CC[C@H](Nc1ncnc(N)c1C(N)=O)c1nc2cccc(NCc3ccc(C(=O)NO)cc3)c2c(=O)n1-c1ccccc1
82.8

I'd like to know its growth. The molecule in question is Nc1c(C(=O)Nc2cccc3c2OCCO3)sc2nc3c(cc12)C(=O)CCC3
18.6

----------
Test system: RPMI-8226 leukemia
Test: NCI-60 one-dose screen, 48 h
Details: 10 µM unless noted
About 83,000 compounds went through this panel and 20% of them were active in at least one assay; those are over-represented in the sample as a whole. Activity calls are given as the source filed them. The calls were made as follows: active = growth percent below 10; inactive = the rest.
Valid outcomes are listed here; reply with one: Yes (active), No (inactive)

Observe how each entry below is paired with its result.
• CCN(CC)CCCC(C)Nc1ccnc2c(OC)cccc12 (centres undefined) = No
• C=C1CC[C@@H]2[C@](C)(COC(C)=O)[C@H](OC(C)=O)CC[C@@]2(C)[C@@H]1CC(Nc1ccc(S(=O)(=O)Nc2nc(C)cc(C)n2)cc1)C1=CCOC1=O (some centres undefined) = Yes
• CN1CCN(Cc2ccc(NC(=O)c3[nH]ncc3Nc3ncnc4c3CCC4)cc2)CC1 = Yes
• COc1ccc(/C=C2\CN(C(=O)CCN3CCC(=NO)CC3)C/C(=C\c3ccc(OC)cc3)C2=O)cc1 = Yes
• O=C(CN1CCN(c2cc3c(cc2F)c(=O)c(C(=O)O)cn3C2CC2)CC1)Nc1nc(-c2ccc(Cl)cc2)cs1 = Yes
• Brc1cccc(-c2cc(-c3ccc4c(c3)OCCO4)[nH]n2)c1 = No
• CC/C=C\C[C@H](O)C/C=C1/C(=O)C=C[C@@H]1C/C=C\CCCC(N)=O = Yes
• Cc1nc2nc(N)nc(N)c2nc1C = No

Assay result, entry O=C(CO[N+](=O)[O-])Nc1ccc(C(=O)/C=C/c2ccc(Cl)cc2)cc1 — outcome?
Yes

Assay result, entry C[C@@H]1CC[C@@H]2[C@@H]1[C@H](OC(=O)/C=C/c1ccccc1)[C@]1(c3ccccc3)C[C@@H](OC(=O)CO)[C@@]2(C)O1 — outcome?
No

Assay result, entry CCN(CC)CCCCNc1ccc(NCCCCN(CC)CC)c2c1C(=O)c1ccccc1C2=O — outcome?
No

Assay result, entry COc1ccc(-c2cn3c(ccc4ccccc43)n2)cc1 — outcome?
No

----------
Test system: SNB-19 CNS
Test: NCI-60 one-dose screen, 48 h (100 = growth as untreated, 0 = no growth, -100 = all killed)
Settings: 10 µM unless noted
This is part of a sample that, as a whole, favours compounds with a hit. Of some 83,000 tested, about 20% had one in any assay.
Under this convention, true denotes growth strictly below 60% and false denotes growth at or above 60%.

Observe how each entry below is paired with its result.
• CCC(c1ccc(O)cc1)C(CC)c1ccc(O)c(F)c1 (centres undefined) = false
• COc1cnc2c(c1)C(=O)c1c-2n(CCCN2CCNCC2)c(=O)c2cc([N+](=O)[O-])ccc12 = true

Now turn to the next molecule.
Does COc1ccc(-c2csc(NC(=O)CN3CCN(c4cc5c(cc4F)c(=O)c(C(=O)O)cn5C4CC4)CC3)n2)cc1 have growth strictly under 60%?
true

----------
System: SF-268 CNS
Test: NCI-60 one-dose screen, 48 h
Conditions: 10 µM unless noted
About 83,000 compounds went through this panel and 20% of them were active in at least one assay; those are over-represented in the sample as a whole. Active and inactive are the calls of the source. The calls were made as follows: active = growth percent below 10; inactive = the rest.
Valid outcomes are listed here; reply with one: t for active, f for inactive

• CS(CCCCN=C=S)=NC(=O)c1c(F)c(F)c(F)c(F)c1F (stereo unspecified) = f

Assay result, entry COc1ccc(-c2cc(-c3ccc(N(C)C)cc3)nc(NC(=O)c3ccncc3)n2)cc1 — outcome?
f

Assay result, entry COc1ccc(-c2cc(NC(=O)Nc3ccc(O)cc3)no2)cc1 — outcome?
f

Assay result, entry Cc1noc(C)c1-c1cc(O)cc(C(O)c2ccccc2)c1 (stereo unspecified) — outcome?
f

Assay result, entry COCCOc1ccc(-c2nc3ccc(-c4nc5ccc(N6CCN(C)CC6)cc5[nH]4)cc3[nH]2)cc1 — outcome?
t

Assay result, entry COc1ccc(CNc2nccnn2)cc1 — outcome?
f

Assay result, entry Nc1c(C(=O)Nc2ccccc2)sc2nc3c(cc12)CN(CCc1ccccc1)CC3 — outcome?
f

Assay result, entry O=C1C(=O)N(CCCCn2cc(CO)nn2)c2ccccc21 — outcome?
f

Assay result, entry Cc1cc(-c2nc3ccccc3s2)ccc1NC(=O)COc1ccc(Cl)cc1 — outcome?
f

Assay result, entry C(=N\Nc1nnn(Cc2ccccc2)n1)/c1ccccc1 — outcome?
f

Assay result, entry COc1cc(NCCCCN=C(N)N)c2ncccc2c1 — outcome?
f

----------
Test system: NCI-H23 lung
Test: NCI-60 one-dose screen, 48 h (100 = growth as untreated, 0 = no growth, -100 = all killed)
Conditions: 10 µM unless noted
About 83,000 compounds went through this panel and 20% of them were active in at least one assay; those are over-represented in the sample as a whole.
Experimental Readout: growth (%)
Give the number; % is assumed, so skip it.

# annotated cases, reported growth shown
• COc1cc(/C=C2\CN(C(=O)CCN3CCC(=NO)CC3)C/C(=C\c3cc(OC)c(OC)c(OC)c3)C2=O)cc(OC)c1OC = -21.9
• COc1ccc(CNc2nccnn2)cc1 = 94.6
• O=C(O)C(O)C(O)C(=O)O.[NH-]C1CCCCC1[NH-].[Pt+2] (centres undefined) = 107
• C=C(C[n+]1ccccc1)[C@@H]1CC[C@]2(C(=O)OC)CC[C@]3(C)[C@H](CC[C@@H]4[C@@]5(C)CC[C@H](O)C(C)(C)[C@@H]5CC[C@]43C)[C@@H]12 = 97.4
• C[C@@H]1CC[C@@H]2[C@@H]1[C@H](OC(=O)/C=C/c1ccccc1)[C@]1(C3CCCCC3)C[C@@H](OC(=O)CO)[C@@]2(C)O1 = 81.9

I'd like to know its growth. The molecule in question is Nc1nc2c(c3ncccc13)C(c1ccc(Cl)c(Cl)c1)Cc1ncccc1-2 (centres undefined)
32.7

I'd like to know its growth. The molecule in question is Nc1ccc(Nc2nccc(-c3ccc4ccccc4c3)n2)cc1
41.2

I'd like to know its growth. The molecule in question is CCCCNc1ccc2c3c1cccc3c(=O)n1c3ccccc3nc21
60

I'd like to know its growth. The molecule in question is O=C1Nc2ccc(Br)cc2C12CC(c1ccccc1)=NN2 (centres undefined)
58.7

I'd like to know its growth. The molecule in question is C=C1C(=O)O[C@H]2[C@H]1CC/C(Cn1cc(Cn3ccc4cc(Cl)ccc43)nn1)=C\CC[C@@]1(C)O[C@@H]21
13.1
